Molecular target: T1, cynomolgus SIRP-α D1 domain (cyno1) (cynomolgus monkey, UniProt Q5TFQ8 30-148 (human entry), limits assumed)
T1 chain: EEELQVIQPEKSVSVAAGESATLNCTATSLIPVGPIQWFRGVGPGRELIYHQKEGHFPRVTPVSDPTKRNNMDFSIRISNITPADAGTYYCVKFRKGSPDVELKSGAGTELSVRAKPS
Assay: SPR, Langmuir fit
quantity-name: koff (s⁻¹)
Give bare numbers, in s⁻¹.

I would be grateful if you could provide koff for each of the following entries.
1. S201 (scFv, V domains shown) VH: DVQLVESGGAVVRPGETLRLSCTASGFTFSSYAMSWVRQAPGKGLEWVSGISASGSDTYYADSVKGRSTISRDNSKNTLYLRMSSLTAEDTAVYYCARETWNHLFDYWGLGTLVTVSS VL: ALTQPASVSANPGETVKITCSGGGTSSYYGWYQQKSPGSAPVTLIHSDDKRPSDIPSRFSGSASGSTATLTITGVQVEDEAVYYCGGYDYTTYVNTFGAGTTLTVL
2. S16 (scFv, V domains shown, also called clone 16) VH: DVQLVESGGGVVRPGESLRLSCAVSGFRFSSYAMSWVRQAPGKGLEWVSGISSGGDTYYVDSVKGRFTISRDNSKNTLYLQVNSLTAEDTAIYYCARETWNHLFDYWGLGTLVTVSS VL: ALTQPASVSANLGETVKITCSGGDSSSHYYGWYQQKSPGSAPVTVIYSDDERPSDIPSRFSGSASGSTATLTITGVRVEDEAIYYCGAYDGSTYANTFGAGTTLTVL
3. S65 (scFv, V domains shown, also called clone 65) VH: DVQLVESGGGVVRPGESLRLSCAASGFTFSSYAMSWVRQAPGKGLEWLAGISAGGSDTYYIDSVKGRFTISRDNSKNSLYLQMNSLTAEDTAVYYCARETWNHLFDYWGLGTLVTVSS VL: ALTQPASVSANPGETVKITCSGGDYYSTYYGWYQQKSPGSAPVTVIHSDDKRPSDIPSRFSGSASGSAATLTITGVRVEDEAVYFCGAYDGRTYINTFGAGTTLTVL

Result:
1: 0.000636; 2: 0.000132; 3: 0.000188
